These data points were gathered from patent US20110178027A1.

Target: furin (UniProt P09958 108-715, limits assumed)
Sequence (P09958 108-715 limits assumed): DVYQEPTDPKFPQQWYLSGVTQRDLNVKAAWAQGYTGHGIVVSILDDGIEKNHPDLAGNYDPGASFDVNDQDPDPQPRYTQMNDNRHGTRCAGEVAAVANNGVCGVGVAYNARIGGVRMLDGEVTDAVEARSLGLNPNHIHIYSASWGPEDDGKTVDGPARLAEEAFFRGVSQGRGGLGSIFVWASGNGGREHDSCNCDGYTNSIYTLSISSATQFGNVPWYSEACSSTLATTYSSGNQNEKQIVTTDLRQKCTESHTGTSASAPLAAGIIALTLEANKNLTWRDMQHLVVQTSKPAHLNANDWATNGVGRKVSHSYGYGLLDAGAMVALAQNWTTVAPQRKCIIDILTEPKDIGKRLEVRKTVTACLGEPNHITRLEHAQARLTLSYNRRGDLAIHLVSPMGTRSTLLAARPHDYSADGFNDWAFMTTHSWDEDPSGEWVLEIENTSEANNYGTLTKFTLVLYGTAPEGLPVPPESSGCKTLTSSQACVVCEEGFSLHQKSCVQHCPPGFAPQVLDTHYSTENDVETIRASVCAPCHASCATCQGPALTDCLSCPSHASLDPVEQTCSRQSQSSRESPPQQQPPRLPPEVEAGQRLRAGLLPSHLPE
Assay: enzyme inhibition assay, fluorogenic substrate PyrRTKR-MCA
No end group written: not given here.
parameter: Ki (nM)
Use nM as the unit, but write only the number.

[Q] # lookup: Ki of LLLLRVKR-NH2 (also called 4 Leu; Multi-Leu (ML)) [LLLLRVKR-NH2]
[A] 114
